# targetDesc: t-PA (Homo sapiens, UniProt P00750)
# Construct: purchased American Diagnostica, Greenwich, Conn
# Sequence (P00750 36-562): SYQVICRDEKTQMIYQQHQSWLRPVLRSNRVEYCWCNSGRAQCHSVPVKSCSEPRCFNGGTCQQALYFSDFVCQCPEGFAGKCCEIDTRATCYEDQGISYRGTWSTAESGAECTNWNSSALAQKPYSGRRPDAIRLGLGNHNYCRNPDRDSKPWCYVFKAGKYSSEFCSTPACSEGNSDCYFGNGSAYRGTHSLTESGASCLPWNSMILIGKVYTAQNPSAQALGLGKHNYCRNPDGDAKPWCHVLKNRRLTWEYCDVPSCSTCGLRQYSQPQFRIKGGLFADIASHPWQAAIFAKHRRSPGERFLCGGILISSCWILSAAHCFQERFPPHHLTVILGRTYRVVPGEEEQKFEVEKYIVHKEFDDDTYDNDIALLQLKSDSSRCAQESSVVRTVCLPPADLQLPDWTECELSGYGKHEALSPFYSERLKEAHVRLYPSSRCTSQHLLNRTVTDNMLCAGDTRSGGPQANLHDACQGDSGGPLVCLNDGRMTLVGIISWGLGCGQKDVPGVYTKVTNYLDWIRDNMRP
# procedureSummary: Serine protease selectivity, chromogenic substrate (Kass), t-PA
# Assay type: biochemical
# conditionSet: substrate H-D-Ile-Pro-Arg-p-nitroanilide
hey, just use condition met if measured Enzyme Kass, t-PA is less than 0.05 L/mol × 10^6, otherwise condition not met

q: Lab note: confirm whether the reported Enzyme Kass, t-PA for this compound is below 0.05 L/mol × 10^6, equality not counting. compound: CC(=O)Nc1cccc(O[C@H]2C[C@@H](C(=O)N[C@H](C=O)CCCNC(=N)N)N(C(=O)[C@H]3CCCCN3)C2)c1.Cl.Cl (relative stereo)
a: condition met

q: Lab note: confirm whether the reported Enzyme Kass, t-PA for this compound is below 0.05 L/mol × 10^6, equality not counting. compound: Cl.Cl.Cl.N=C(N)NCCC[C@@H](C=O)NC(=O)[C@@H]1C[C@H](Oc2cccnc2)CN1C(=O)[C@H]1CCCCN1 (relative stereo)
a: condition not met

q: Lab note: confirm whether the reported Enzyme Kass, t-PA for this compound is below 0.05 L/mol × 10^6, equality not counting. compound: Cl.Cl.N=C(N)NCCC[C@@H](C=O)NC(=O)[C@@H]1CC2CCCCC2N1C(=O)[C@H]1CCCCN1 (relative stereo)
a: condition not met

q: Lab note: confirm whether the reported Enzyme Kass, t-PA for this compound is below 0.05 L/mol × 10^6, equality not counting. compound: CCS(=O)(=O)N[C@H](C(=O)N1C[C@@H](Oc2ccccc2)C[C@H]1C(=O)N[C@H](C=O)CCCNC(=N)N)c1ccccc1.Cl (relative stereo) [Example 16, EtSO2 -L-Phg-Pro(4-cis-phenoxy)-ArgH.HCl]
a: condition not met

q: Lab note: confirm whether the reported Enzyme Kass, t-PA for this compound is below 0.05 L/mol × 10^6, equality not counting. compound: Cl.Cl.N=C(N)NCCC[C@@H](C=O)NC(=O)[C@@H]1C[C@H](Oc2ccc(C(=O)O)cc2)CN1C(=O)[C@H]1CCCCN1 (relative stereo)
a: condition met

q: Lab note: confirm whether the reported Enzyme Kass, t-PA for this compound is below 0.05 L/mol × 10^6, equality not counting. compound: CCS(=O)(=O)N[C@@H](C(=O)N1C[C@@H](Oc2ccccc2)C[C@H]1C(=O)N[C@H](C=O)CCCNC(=N)N)c1ccccc1.Cl (relative stereo) [Example 17, EtSO2 -D-Phg-Pro(4-cis-phenoxy)-ArgH.HCl]
a: condition not met

q: Lab note: confirm whether the reported Enzyme Kass, t-PA for this compound is below 0.05 L/mol × 10^6, equality not counting. compound: Cl.Cl.Cl.N=C(N)NCCC[C@@H](C=O)NC(=O)[C@@H]1C[C@H](Oc2ccc(N)cc2)CN1C(=O)[C@H]1CCCCN1 (relative stereo)
a: condition not met

q: Lab note: confirm whether the reported Enzyme Kass, t-PA for this compound is below 0.05 L/mol × 10^6, equality not counting. compound: Cl.Cl.N=C(N)NCCC[C@@H](C=O)NC(=O)[C@@H]1C[C@H](c2ccccc2)CN1C(=O)[C@H]1CCCCN1 (relative stereo) [Example 6, D-hPro-Pro(4-cis-phenyl)-ArgH.2 HCl]
a: condition not met

q: Lab note: confirm whether the reported Enzyme Kass, t-PA for this compound is below 0.05 L/mol × 10^6, equality not counting. compound: Cl.Cl.N=C(N)NCCC[C@@H](C=O)NC(=O)[C@@H]1C[C@H](Oc2ccccc2)CN1C(=O)C1NCCC2CCCCC21 (relative stereo) [Example 15, D-1-Piq-Pro(4-cis-phenoxy)-ArgH.2 HCl]
a: condition met

q: Lab note: confirm whether the reported Enzyme Kass, t-PA for this compound is below 0.05 L/mol × 10^6, equality not counting. compound: CC[C@H]1C[C@@H](C(=O)N[C@H](C=O)CCCNC(=N)N)N(C(=O)[C@H]2CCCCN2)C1.Cl.Cl (relative stereo)
a: condition not met

q: Lab note: confirm whether the reported Enzyme Kass, t-PA for this compound is below 0.05 L/mol × 10^6, equality not counting. compound: Cl.Cl.N=C(N)NCCC[C@@H](C=O)NC(=O)[C@@H]1C[C@H](Oc2cccc(N)c2)CN1C(=O)[C@H]1CCCCN1 (relative stereo)
a: condition met

q: Lab note: confirm whether the reported Enzyme Kass, t-PA for this compound is below 0.05 L/mol × 10^6, equality not counting. compound: CC(C)CC[C@H]1C[C@@H](C(=O)N[C@H](C=O)CCCNC(=N)N)N(C(=O)[C@H]2CCCCN2)C1.Cl.Cl (relative stereo)
a: condition not met

q: Lab note: confirm whether the reported Enzyme Kass, t-PA for this compound is below 0.05 L/mol × 10^6, equality not counting. compound: Cl.Cl.N=C(N)NCCC[C@H](C=O)NC(=O)[C@@H]1C[C@H](Oc2ccccc2)CN1C(=O)[C@H]1CCCCN1 (relative stereo)
a: condition not met
